The entries below come with measured D4 RBA % Inhibition (@ 1 μM) values attached.
- test_system: human D4 receptor (D4.2 sub-type) (Homo sapiens, UniProt P21917, DEL265-296)
- Sequence (P21917 with tags, fused parts or gaps DEL265-296): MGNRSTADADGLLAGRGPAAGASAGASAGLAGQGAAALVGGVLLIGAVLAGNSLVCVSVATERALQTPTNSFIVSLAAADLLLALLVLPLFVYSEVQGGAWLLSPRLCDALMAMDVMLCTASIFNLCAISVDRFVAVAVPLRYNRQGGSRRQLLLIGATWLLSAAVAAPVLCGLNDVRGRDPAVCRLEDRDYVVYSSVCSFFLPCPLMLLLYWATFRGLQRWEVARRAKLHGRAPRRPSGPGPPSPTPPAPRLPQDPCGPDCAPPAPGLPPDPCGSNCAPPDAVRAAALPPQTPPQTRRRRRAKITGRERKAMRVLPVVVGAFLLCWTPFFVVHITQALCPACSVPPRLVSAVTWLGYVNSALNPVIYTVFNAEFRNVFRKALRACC
- assay_text: D4 receptor binding assay, displacement of 3H-spiperone
- condition_set: 1 μM test compound, 3H-spiperone 0.25 nM
- Experimental: D4 receptor-binding affinities of the compounds were evaluated according to their ability to reduce binding of ^3H-spiperone as compared to the reference compound clozapine. The potency of the test compound to reduce ^3H-spiperone binding directly correlated to its binding affinity for the receptor. […]
Value and unit, in that order.

Solved entries (count: 5):
>>> value_observed("CN(CCc1ccccc1)C[C@@H](O)COc1ccc(-c2noc3cc(F)ccc23)cc1 [Example 27]")
"66%"
>>> value_observed("O[C@@H](COc1ccc(-c2noc3cc(F)ccc23)cc1)CN1CCC(c2noc3cc(F)ccc23)CC1 [Example 34]")
"46%"
>>> value_observed("O[C@@H](COc1cccc(-c2noc3ncccc23)c1)CN1CCC(Oc2cccc(Cl)c2)CC1 [Example 102]")
"59%"
>>> value_observed("O[C@@H](COc1ccc(-c2noc3cc(F)ccc23)cc1)CN1CCC(O)(c2ccccc2)CC1 [Example 38]")
"54%"
>>> value_observed("COc1cccc(CNC[C@@H](O)COc2ccc(-c3noc4cc(F)ccc34)cc2)c1 [Example 80]")
"76%"

Attention now shifts to the item below.
Recall and state the measured D4 RBA % Inhibition (@ 1 μM) for O[C@@H](COc1ccc(-c2noc3cc(F)ccc23)cc1)CN1CCN(c2ccccn2)CC1 [Example 29] .
41%
